Data provenance is patent US20220033460A1.

test-target: DRB1*07:01
condition-notes: modification not given
measured-property: IC50 (nM)

binder="TLLALHRSYLTPGDS [… (position 240)]" measured_property=IC50 u=nM reading=298
